Where do these numbers come from? They come from patent US10905683B2.

- ASSAY_INFO: Phase 1 Part 2, multiple ascending dose pharmacokinetics (7 days, q8h)
- Format: in vivo, human
- APPLIED_CONDITIONS: human, plasma, oral, calculated over a 24 hour period; read-out: terminal elimination half-life (converted)
PROPERTY: half-life

Suppose we examine the compound `C=Cc1cc(C(=O)Nc2ccc(C(=N)N)cc2)c(-c2ccc(C(=O)NCC3CC3)nc2C(=O)O)cc1OC` ; what half-life value has been reported? ~10 h

----------
- ASSAY_INFO: Phase 1 Part 2, multiple ascending dose pharmacokinetics (7 days, q8h)
- Type: in vivo, human
- APPLIED_CONDITIONS: human, plasma, oral, 400 mg, Day 7, 400 mg q 8 h, GM
PROPERTY: AUC (ng·h/mL)
Provide only the numeric value, understood in ng·h/mL.

Suppose we examine the compound `C=Cc1cc(C(=O)Nc2ccc(C(=N)N)cc2)c(-c2ccc(C(=O)NCC3CC3)nc2C(=O)O)cc1OC` ; what AUC value has been reported? 534

----------
- ASSAY_INFO: Phase 1 Part 2, multiple ascending dose pharmacokinetics (7 days, q8h)
- Assay type: in vivo, human
- APPLIED_CONDITIONS: human, plasma, oral, 100 mg, Day 7, 100 mg q 8 h, Median
PROPERTY: Tmax
Answer format: number, then unit.

Suppose we examine the molecule `C=Cc1cc(C(=O)Nc2ccc(C(=N)N)cc2)c(-c2ccc(C(=O)NCC3CC3)nc2C(=O)O)cc1OC` ; what Tmax value has been reported? 2 h

----------
- ASSAY_INFO: Phase 1 Part 2, multiple ascending dose pharmacokinetics (7 days, q8h)
- Assay type: in vivo, human
- APPLIED_CONDITIONS: human, plasma, oral, 100 mg, Day 1, 100 mg q 8 h, GM
PROPERTY: Cmax (ng/mL)
Provide only the numeric value, understood in ng/mL.

Suppose we examine the compound `C=Cc1cc(C(=O)Nc2ccc(C(=N)N)cc2)c(-c2ccc(C(=O)NCC3CC3)nc2C(=O)O)cc1OC` ; what Cmax value has been reported? 54.5

----------
- ASSAY_INFO: Phase 1 Part 1, single ascending oral dose pharmacokinetics and food effect
- Assay type: in vivo, human
- APPLIED_CONDITIONS: human, plasma, po, 500 mg, 500 mg single oral dose, FED (high-fat breakfast); GM, n = 5
PROPERTY: AUC(0-inf) (ng·h/mL)
Provide only the numeric value, understood in ng·h/mL.

Suppose we examine the compound `C=Cc1cc(C(=O)Nc2ccc(C(=N)N)cc2)c(-c2ccc(C(=O)NCC3CC3)nc2C(=O)O)cc1OC` ; what AUC(0-inf) value has been reported? 642

----------
- ASSAY_INFO: Further solubility studies in solvents, mixtures and surfactants
- Format: physicochemical
- APPLIED_CONDITIONS: 6% EtOH/15% glycerin/79% water, aqueous with cosolvent or surfactant or cyclodextrin, thermodynamic from solid, 6% EtOH/15% glycerin/79% water; read-out: Example 1 Solubility After 24 hrs
PROPERTY: solubility at 24 h (µg/mL)
Provide only the numeric value, understood in µg/mL.

Suppose we examine the molecule C=Cc1cc(C(=O)Nc2ccc(C(=N)N)cc2)c(-c2ccc(C(=O)NCC3CC3)nc2C(=O)O)cc1OC [Example 1] ; what solubility at 24 h value has been reported? 70

----------
- ASSAY_INFO: Phase 1 Part 2, multiple ascending dose pharmacokinetics (7 days, q8h)
- Assay type: in vivo, human
- APPLIED_CONDITIONS: human, plasma, oral, 100 mg, Day 7, 100 mg q 8 h, GM; read-out: t1/2 (converted)
PROPERTY: half-life (min)
Provide only the numeric value, understood in min.

Suppose we examine the molecule C=Cc1cc(C(=O)Nc2ccc(C(=N)N)cc2)c(-c2ccc(C(=O)NCC3CC3)nc2C(=O)O)cc1OC [Example 1] ; what half-life value has been reported? 744

----------
- ASSAY_INFO: Phase 1 Part 1, single ascending oral dose pharmacokinetics and food effect
- Type: in vivo, human
- APPLIED_CONDITIONS: human, plasma, po, 250 mg, 250 mg single oral dose, fasting; median
PROPERTY: Tmax (h)
Provide only the numeric value, understood in h.

Suppose we examine the compound `C=Cc1cc(C(=O)Nc2ccc(C(=N)N)cc2)c(-c2ccc(C(=O)NCC3CC3)nc2C(=O)O)cc1OC` ; what Tmax value has been reported? 2

----------
- ASSAY_INFO: Phase 1 Part 2, multiple ascending dose pharmacokinetics (7 days, q8h)
- Format: in vivo, human
- APPLIED_CONDITIONS: human, plasma, oral, 200 mg, Day 7, 200 mg q 8 h, GM
- Source text: Part 2 of the study evaluated the safety, tolerability, PK, and PD of multiple ascending doses of the compound of Example 1. […]
PROPERTY: AUC (ng·h/mL)
Provide only the numeric value, understood in ng·h/mL.

Suppose we examine the molecule `C=Cc1cc(C(=O)Nc2ccc(C(=N)N)cc2)c(-c2ccc(C(=O)NCC3CC3)nc2C(=O)O)cc1OC` ; what AUC value has been reported? 316

----------
- ASSAY_INFO: Phase 1 Part 2, multiple ascending dose pharmacokinetics (7 days, q8h)
- Format: in vivo, human
- APPLIED_CONDITIONS: human, plasma, oral, 800 mg, Day 7, 800 mg q 8 h, GM
PROPERTY: Cmax (ng/mL)
Provide only the numeric value, understood in ng/mL.

Suppose we examine the compound C=Cc1cc(C(=O)Nc2ccc(C(=N)N)cc2)c(-c2ccc(C(=O)NCC3CC3)nc2C(=O)O)cc1OC [Example 1] ; what Cmax value has been reported? 187

----------
- ASSAY_INFO: pKa by UV-metric and potentiometric titration
- Type: physicochemical
- APPLIED_CONDITIONS: aqueous (UV-metric); methanol cosolvents (potentiometric), no higher pKa observed by potentiometric method; read-out: higher pKa as reported
PROPERTY: pKa

Suppose we examine the molecule C=Cc1cc(C(=O)Nc2ccc(C(=N)N)cc2)c(-c2ccc(C(=O)NCC3CC3)nc2C(=O)O)cc1OC [Example 1] ; what pKa value has been reported? > 11

----------
- ASSAY_INFO: Phase 1 Part 1, single ascending oral dose pharmacokinetics and food effect
- Format: in vivo, human
- APPLIED_CONDITIONS: human, plasma, po, 250 mg, 250 mg single oral dose, fasting; GM
PROPERTY: Cmax (µg/mL)
Provide only the numeric value, understood in µg/mL.

Suppose we examine the compound `C=Cc1cc(C(=O)Nc2ccc(C(=N)N)cc2)c(-c2ccc(C(=O)NCC3CC3)nc2C(=O)O)cc1OC` ; what Cmax value has been reported? 0.0859

----------
- ASSAY_INFO: Solubility with cyclodextrins and co-agents
- Type: physicochemical
- APPLIED_CONDITIONS: Captisol 150 mM with ethanol 10%, aqueous with cosolvent or surfactant or cyclodextrin, thermodynamic from solid, Captisol 150 mM, Ethanol 10%
PROPERTY: solubility (µg/mL)
Provide only the numeric value, understood in µg/mL.

Suppose we examine the compound `C=Cc1cc(C(=O)Nc2ccc(C(=N)N)cc2)c(-c2ccc(C(=O)NCC3CC3)nc2C(=O)O)cc1OC` ; what solubility value has been reported? 3550

----------
- ASSAY_INFO: Solubility with cyclodextrins and co-agents
- Type: physicochemical
- APPLIED_CONDITIONS: Captisol solution with co-agent, aqueous with cosolvent or surfactant or cyclodextrin, thermodynamic from solid, Captisol 150 mM, HPMC E-5 0.25%
- Protocol: Additional solubility studies were undertaken using cyclodextrins, including α-cyclodextrin and a polyanionic β-cyclodextrin derivative with a sodium sulfonate salt separated from the lipophilic cavity by a butyl ether or sulfobutylether spacer group) (referred to herein as Captisol) in combination with a variety of co-agents. Test samples were prepared with the indicated cyclodextrins and the compound of Example 1, both with and without additional agents. […]
PROPERTY: solubility
Answer format: number, then unit.

Suppose we examine the compound `C=Cc1cc(C(=O)Nc2ccc(C(=N)N)cc2)c(-c2ccc(C(=O)NCC3CC3)nc2C(=O)O)cc1OC` ; what solubility value has been reported? 4160 µg/mL

----------
- ASSAY_INFO: Phase 1 Part 1, single ascending oral dose pharmacokinetics and food effect
- Format: in vivo, human
- APPLIED_CONDITIONS: human, plasma, po, 125 mg, 125 mg single oral dose, fasting; GM; read-out: t1/2 (converted)
PROPERTY: half-life (h)
Provide only the numeric value, understood in h.

Suppose we examine the molecule C=Cc1cc(C(=O)Nc2ccc(C(=N)N)cc2)c(-c2ccc(C(=O)NCC3CC3)nc2C(=O)O)cc1OC [Example 1] ; what half-life value has been reported? 4.66

----------
- ASSAY_INFO: Further solubility studies in solvents, mixtures and surfactants
- Type: physicochemical
- APPLIED_CONDITIONS: 20% PG in 80% PEG600, organic solvent or mixture, thermodynamic from solid, 20% PG in 80% PEG600; read-out: Example 1 Solubility After 24 hrs
PROPERTY: solubility at 24 h (mg/mL)
Provide only the numeric value, understood in mg/mL.

Suppose we examine the compound C=Cc1cc(C(=O)Nc2ccc(C(=N)N)cc2)c(-c2ccc(C(=O)NCC3CC3)nc2C(=O)O)cc1OC [Example 1] ; what solubility at 24 h value has been reported? 52.4
